# System: 377384-186-R-J1-PDC complex spheroid viability;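 note: spheroids exposed to compounds for seven days before readout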
# assay.summary: Anticancer human tumor 377384-186-R-J1-PDC patient-derived pancreatic carcinoma cell line growth inhibition [RAS]
# details: second compound 1 µM; first compound 0.316 µM; hits give low values
Listing: viability, T/C of selected compounds

[
  {
    "compound": "C=CC(=O)N1CCN(c2nc(OCC3CCCN3C)nc3c(F)c(-c4nc(N)cc(C)c4C(F)(F)F)c(Cl)cc23)C(C)C1 (centres undefined) + C#Cc1c(F)ccc2cc(O)cc(-c3ncc4c(N5CC6CCC(C5)N6)nc(OCC56CCCN5CC(F)C6)nc4c3F)c12",
    "viability, T/C": "3.08%"
  },
  {
    "compound": "C=CC(=O)Nc1cc(Nc2nccc(-c3cn(C)c4ccccc34)n2)c(OC)cc1N(C)CCN(C)C + C#Cc1c(F)ccc2cc(O)cc(-c3ncc4c(N5CC6CCC(C5)N6)nc(OCC56CCCN5CC(F)C6)nc4c3F)c12",
    "viability, T/C": "1.51%"
  },
  {
    "compound": "CC1(O)CCCC1n1c(=O)c(C(F)F)cc2cnc(NC3CCN(S(C)(=O)=O)CC3)nc21 (centres undefined) + C#Cc1c(F)ccc2cc(O)cc(-c3ncc4c(N5CC6CCC(C5)N6)nc(OCC56CCCN5CC(F)C6)nc4c3F)c12",
    "viability, T/C": "2.88%"
  },
  {
    "compound": "CC(Nc1ccc2c(c1)OCCn1cc(N3C(=O)OCC3C(F)F)nc1-2)C(N)=O (centres undefined) + C#Cc1c(F)ccc2cc(O)cc(-c3ncc4c(N5CC6CCC(C5)N6)nc(OCC56CCCN5CC(F)C6)nc4c3F)c12",
    "viability, T/C": "0.85%"
  }
]
